I'd be grateful if you could share measured Inhibitory rate on pro-proliferative effect of IL-13 for these entries.
STUDY_TARGET: T1, IL-4Rα on TF-1 cells (human, UniProt P24394 26-825)
T1 sequence (looked up): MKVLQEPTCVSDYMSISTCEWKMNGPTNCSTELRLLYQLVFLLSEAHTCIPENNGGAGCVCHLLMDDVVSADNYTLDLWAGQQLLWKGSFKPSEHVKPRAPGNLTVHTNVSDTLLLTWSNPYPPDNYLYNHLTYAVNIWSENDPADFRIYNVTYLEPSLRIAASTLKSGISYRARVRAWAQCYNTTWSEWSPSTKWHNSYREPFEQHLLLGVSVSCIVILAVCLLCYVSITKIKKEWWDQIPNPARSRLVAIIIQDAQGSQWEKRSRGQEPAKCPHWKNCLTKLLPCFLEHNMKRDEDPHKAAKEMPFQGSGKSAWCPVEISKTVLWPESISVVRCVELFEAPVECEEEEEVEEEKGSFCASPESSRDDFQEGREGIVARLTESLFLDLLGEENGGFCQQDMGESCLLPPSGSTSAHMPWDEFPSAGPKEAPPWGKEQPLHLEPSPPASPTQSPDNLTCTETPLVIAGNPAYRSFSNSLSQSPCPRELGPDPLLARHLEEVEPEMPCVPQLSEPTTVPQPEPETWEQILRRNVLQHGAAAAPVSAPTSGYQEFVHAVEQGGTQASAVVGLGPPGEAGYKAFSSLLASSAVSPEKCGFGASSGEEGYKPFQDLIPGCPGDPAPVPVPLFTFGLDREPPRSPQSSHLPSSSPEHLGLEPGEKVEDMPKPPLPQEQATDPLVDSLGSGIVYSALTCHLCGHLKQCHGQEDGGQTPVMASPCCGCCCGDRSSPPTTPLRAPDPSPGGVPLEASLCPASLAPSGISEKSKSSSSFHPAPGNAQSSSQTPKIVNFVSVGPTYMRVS
METHOD_DESCRIPTION: cell-based or functional assay

Recorded Inhibitory rate on pro-proliferative effect of IL-13 of L1001H1000 (antibody, V domains shown, human kappa) VH: EVQLVQSGGGLVHPGGSLRLSCAGSGFTFSRNAMFWVRQAPGKGLEWVSGIGTGGATNYADSVKGRFTISRDNAKNSLYLQMNSLRAEDMAVYYCARGRYYFDYWGQGTLVTVSS VL: EIVLTQSPGTLSLSPGERATLSCRASQSVSNSYLAWYQQKPGQAPRLLIYGASSRAPGIPDRFSGSGSGTDFTLTISRLEPEDFAVYYCQQYDHSAGWTFGQGTKVEIK , please.
0.85

Requested field: Inhibitory rate on pro-proliferative effect of IL-13. Item: L1024H1031 (antibody, V domains shown, human kappa) VH: EVQLVESGGGLVQPGGSLRLSCAASGFTFSRNAMFWVRQAPGKGLEWVSGIGTGGATSYADSVKGRFTISRDNAKNSLYLQMNSLRAEDTAVYYCARGRYYFDYWGQGTLVTVSS VL: EIVLTQSPGTLSLSPGERATLSCRASQSVSNSYLAWYQQKPGQAPRLLIFGASSRAPGIPDRFSGSGSGTDFTLTISRLEPEDFAVYYCQQYDHSAGWTFGQGTKVEIK
0.94

For the binder L1021H1000 (antibody, V domains shown, human kappa) VH: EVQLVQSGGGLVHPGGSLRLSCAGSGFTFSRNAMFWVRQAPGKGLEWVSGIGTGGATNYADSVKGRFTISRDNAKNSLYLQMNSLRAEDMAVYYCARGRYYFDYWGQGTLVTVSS VL: EIVLTQSPGTLSLSPGERATLSCRASQSVSSSYLAWYQQKPGQAPRLLIFGASSRAPGIPDRFSGSGSGTDFTLTISRLEPEDFAVYYCQQYDHSAGWTFGQGTKVEIK , what Inhibitory rate on pro-proliferative effect of IL-13 is on record?
0.78
